- Test system: HeLa
- ASSAY: MTT analysis, anticancer activity
- Type: cell-based, human
- EXPERIMENTAL CONTEXT: 48 hr
# IC50 HeLa per record follows

COMPOUND	UNIT OF MEASUREMENT	IC50 HeLa
COc1ccc(C(O)C(C)Oc2ccc(C3OC(c4ccc(OC(C)[C@@H](O)c5ccc(OC)c(OC)c5)c(OC)c4)C(C)C3C)cc2OC)cc1OC (single isomer, unassigned) [HNP-98701B]	µg/mL	0.1680
N.N.[Cl][Pt][Cl] [Cisplatin]	µg/mL	5.3358
COc1ccc(C(O)C(C)Oc2ccc(C3OC(c4ccc(OC(C)[C@@H](O)c5ccc(OC)c(OC)c5)c(OC)c4)C(C)C3C)cc2OC)cc1OC (single isomer, unassigned) [HNP-98701A, epi-manassantin A]	µg/mL	0.4233
COc1ccc(C(O)C(C)Oc2ccc(C3OC(c4ccc(OC(C)[C@@H](O)c5ccc(OC)c(OC)c5)c(OC)c4)C(C)C3C)cc2OC)cc1OC (single isomer, unassigned) [HNP-98701C, manassantin A]	µg/mL	0.1838

----------
- System: BT-20
- ASSAY: MTT analysis, anticancer activity
- Type: cell-based, human
- EXPERIMENTAL CONTEXT: 48 hr

COMPOUND	IC50 BT-20 (µg/mL)
COc1ccc(C(O)C(C)Oc2ccc(C3OC(c4ccc(OC(C)[C@@H](O)c5ccc(OC)c(OC)c5)c(OC)c4)C(C)C3C)cc2OC)cc1OC (single isomer, unassigned) [HNP-98701B]	0.0292
COc1ccc(C(O)C(C)Oc2ccc(C3OC(c4ccc(OC(C)[C@@H](O)c5ccc(OC)c(OC)c5)c(OC)c4)C(C)C3C)cc2OC)cc1OC (single isomer, unassigned) [HNP-98701A, epi-manassantin A]	0.0996
COc1ccc(C(O)C(C)Oc2ccc(C3OC(c4ccc(OC(C)[C@@H](O)c5ccc(OC)c(OC)c5)c(OC)c4)C(C)C3C)cc2OC)cc1OC (single isomer, unassigned) [HNP-98701C, manassantin A]	0.0629
N.N.[Cl][Pt][Cl] [Cisplatin]	1.4578

----------
- Tested on: DU-145 prostate cancer cell line
- ASSAY: MTT analysis, anticancer activity
- Type: cell-based, human
- EXPERIMENTAL CONTEXT: 48 hr

COMPOUND	IC50 DU-145
COc1ccc(C(O)C(C)Oc2ccc(C3OC(c4ccc(OC(C)[C@@H](O)c5ccc(OC)c(OC)c5)c(OC)c4)C(C)C3C)cc2OC)cc1OC (single isomer, unassigned) [HNP-98701A, epi-manassantin A]	0.0537 µg/mL
N.N.[Cl][Pt][Cl] [Cisplatin]	3.0012 µg/mL
COc1ccc(C(O)C(C)Oc2ccc(C3OC(c4ccc(OC(C)[C@@H](O)c5ccc(OC)c(OC)c5)c(OC)c4)C(C)C3C)cc2OC)cc1OC (single isomer, unassigned) [HNP-98701B]	0.0184 µg/mL
COc1ccc(C(O)C(C)Oc2ccc(C3OC(c4ccc(OC(C)[C@@H](O)c5ccc(OC)c(OC)c5)c(OC)c4)C(C)C3C)cc2OC)cc1OC (single isomer, unassigned) [HNP-98701C, manassantin A]	0.0263 µg/mL

----------
Below, each entry is listed with its recorded IC50 A431.
- System: A431
- ASSAY: MTT analysis, anticancer activity
- Type: cell-based, human
- EXPERIMENTAL CONTEXT: 48 hr

COMPOUND	IC50 A431
COc1ccc(C(O)C(C)Oc2ccc(C3OC(c4ccc(OC(C)[C@@H](O)c5ccc(OC)c(OC)c5)c(OC)c4)C(C)C3C)cc2OC)cc1OC (single isomer, unassigned) [HNP-98701B]	0.2344 µg/mL
COc1ccc(C(O)C(C)Oc2ccc(C3OC(c4ccc(OC(C)[C@@H](O)c5ccc(OC)c(OC)c5)c(OC)c4)C(C)C3C)cc2OC)cc1OC (single isomer, unassigned) [HNP-98701A, epi-manassantin A]	0.4903 µg/mL
N.N.[Cl][Pt][Cl] [Cisplatin]	0.4240 µg/mL
COc1ccc(C(O)C(C)Oc2ccc(C3OC(c4ccc(OC(C)[C@@H](O)c5ccc(OC)c(OC)c5)c(OC)c4)C(C)C3C)cc2OC)cc1OC (single isomer, unassigned) [HNP-98701C, manassantin A]	0.3860 µg/mL

Attribution: patent US20040024055A1
